UniProt P25774 pKi data
Sequence (P25774 whole entry): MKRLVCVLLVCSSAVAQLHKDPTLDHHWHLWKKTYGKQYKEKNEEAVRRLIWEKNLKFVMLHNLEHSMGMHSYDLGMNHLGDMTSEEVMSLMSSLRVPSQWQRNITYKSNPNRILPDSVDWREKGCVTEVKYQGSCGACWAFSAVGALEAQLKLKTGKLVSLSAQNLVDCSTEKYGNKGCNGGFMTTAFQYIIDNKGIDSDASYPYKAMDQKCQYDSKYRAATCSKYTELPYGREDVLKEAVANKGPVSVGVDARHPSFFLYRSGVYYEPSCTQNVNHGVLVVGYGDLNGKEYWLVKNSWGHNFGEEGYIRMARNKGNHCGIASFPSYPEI
Answer as the number alone; pKi is minus log10 of concentration in mol/L.

compound	target	pKi
CC(C)C[C@H](NC(=O)c1ccc2ccccc2n1)C(=O)NC1COCC1=O (some centres undefined)	UniProt P25774	5.96

q: Query the reported pKi for UniProt P25774; item: CC(C)C[C@H](NC(=O)OCc1ccccc1)C(=O)NC1CN(C(=O)[C@H](CC(C)C)NC(=O)OCc2ccccc2)CC1=O (some centres undefined)
a: 7.05

###

# target: Cathepsin K (Homo sapiens, UniProt P43235)
# Sequence (P43235 whole entry): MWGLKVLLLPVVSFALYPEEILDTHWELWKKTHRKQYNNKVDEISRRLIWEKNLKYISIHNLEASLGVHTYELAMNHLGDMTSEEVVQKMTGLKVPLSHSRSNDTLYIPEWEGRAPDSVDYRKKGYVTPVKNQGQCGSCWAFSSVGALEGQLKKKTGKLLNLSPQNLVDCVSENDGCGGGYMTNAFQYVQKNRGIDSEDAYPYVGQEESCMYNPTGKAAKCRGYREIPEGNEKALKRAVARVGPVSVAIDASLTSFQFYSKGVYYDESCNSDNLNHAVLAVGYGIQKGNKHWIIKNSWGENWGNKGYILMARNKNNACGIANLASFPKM
# assay-remarks: Inhibitory activity tested against human Cathepsin K
assay-metric: pKi
Answer as the number alone; pKi is minus log10 of concentration in mol/L.

The cases that follow already have their pKi on record.
compound	target	pKi
CC(C)C[C@H](NC(=O)c1cc2ccccc2s1)C(=O)NC1CCOCC1=O (stereo partly drawn)	Cathepsin K (Homo sapiens, UniProt P43235)	7.96
COCC(=O)[C@H](CC(C)C)NC(=O)[C@H](CC(C)C)NC(=O)OCc1ccccc1	Cathepsin K (Homo sapiens, UniProt P43235)	7.10

q: # query: pKi of entry CC(C)C[C@H](NC(=O)c1cc2ccccc2s1)C(=O)NC1COCCC1=O (stereo partly drawn)
a: 6.25

###

UniProtKB P07858 Ki data

The cases that follow already have their Ki on record.
compound	measurement
CC(C)C[C@H](NC(=O)OCc1ccccc1)C(=O)NC1CCOCC1=O (some centres undefined)	> 10 µM
CC(C)C[C@H](NC(=O)OCc1ccccc1)C(=O)NC1CCCCC1=O (some centres undefined)	> 10 µM
CC(C)C[C@H](NC(=O)OCc1ccccc1)C(=O)NC1COCC1=O (some centres undefined)	> 10 µM

Lab note: next compound to report on.
q: # query: Ki of entry "CN[C@@H](CC(C)C)C(=O)N1CC(=O)[C@@H](NC(=O)[C@H](CC(C)C)NC(=O)OCc2ccccc2)C1"
a: 7.3 µM

###

# target: Cathepsin K (Homo sapiens, UniProt P43235)
# assay-remarks: In vitro inhibition of human Cathepsin K.
# run-conditions: read-out: Ki app
pKi: −log10 of the molar value.
Property: pKi; scope: individual molecules

q: # query: pKi of entry CC(C)C[C@H](NC(=O)OCc1ccccc1)C(=O)NC1CCCC1=O (some centres undefined)
a: < 5.00

q: # query: pKi of entry CC(C)C[C@H](NC(=O)OCc1ccccc1)C(=O)NC1COCC1O (some centres undefined)
a: < 6.00

q: # query: pKi of entry CC(C)C[C@H](NC(=O)OCc1ccccc1)C(=O)NC1CCCCC1=O (some centres undefined)
a: < 5.00

q: # query: pKi of entry CC(C)C[C@H](NC(=O)OCc1ccccc1)C(=O)NC1CCOCC1O (some centres undefined)
a: < 6.00
